Values from ChEMBL document CHEMBL1201862

System: OVCAR-4
Test: NCI tumour cell line growth inhibition, 48 h
Calls of active or inactive are those of the source. Cut-off read from the data, not from the text of the source: active = GI50 up to about 1.1 µM and inactive = higher.
Labels: 1 (active), -1 (inactive)

compound: Cc1ccc(NC(=O)/C(=N\NC(N)=S)C(C#N)c2ccccc2C)cc1C (stereo not given)
targetEntity: OVCAR-4
discreteLabel: -1
//
compound: Cc1cc(C)nc(NS(=O)(=O)c2ccc(Nc3c4ccc(Cl)cc4nc4c(C(=O)NCCN(C)C)cccc34)cc2)n1
targetEntity: OVCAR-4
discreteLabel: -1
//
compound: C/N=C(\NC(=S)N(C)C)N(C)C
targetEntity: OVCAR-4
discreteLabel: -1
//
compound: CN(C)CC(NC(NCS)C(=O)NCCNc1ccc(NCCNC(=O)C(NCS)NC(CN(C)C)OCCl)c2c1C(=O)c1c(O)ccc(O)c1C2=O)OCCl (stereo not given)
targetEntity: OVCAR-4
discreteLabel: 1
//
compound: O=C1CCSCCC(=O)Nc2ccccc2N1
targetEntity: OVCAR-4
discreteLabel: -1
//
compound: COCn1cnc2c(=O)nc(SC)n(-c3ccccc3)c21
targetEntity: OVCAR-4
discreteLabel: -1
//
compound: CC(=O)O/N=C(/C)c1ccccc1O
targetEntity: OVCAR-4
discreteLabel: -1
//
compound: CCOC(=O)CC[C@H](N)C(=O)N[C@H](Cc1ccc(N(CCCl)CCCl)cc1)C(=O)OCC
targetEntity: OVCAR-4
discreteLabel: -1
//
compound: CCOC(=O)CON=c1c2ccccc2ccc2ccccc12
targetEntity: OVCAR-4
discreteLabel: -1
//
compound: O=C1/C(=C/c2ccc(C(=O)O)cc2)CNC/C1=C\c1ccc(C(=O)O)cc1
targetEntity: OVCAR-4
discreteLabel: -1
//
compound: CSc1ncc2c(n1)-c1ccccc1OC2NC1CC1 (stereo not given)
targetEntity: OVCAR-4
discreteLabel: -1
//
compound: CC(C)(CO)NC(=O)c1cccc(C(=O)NC(C)(C)CO)c1Br
targetEntity: OVCAR-4
discreteLabel: -1
//
compound: CC1CC(=O)c2c(ccc3c2C(=O)c2cccc(O)c2C3=O)C1 (stereo not given)
targetEntity: OVCAR-4
discreteLabel: -1
//
compound: COC1=CC(=O)[C@]2(C)[C@H](C1=O)C(C)[C@H]2c1ccc(OC)cc1 (stereo not given in full)
targetEntity: OVCAR-4
discreteLabel: -1
//
compound: COc1ccc2nccc(C3=CCC4CCN(C(=O)c5ccccc5)C3C4)c2c1 (stereo not given)
targetEntity: OVCAR-4
discreteLabel: -1
//
compound: O=C1OC(c2ccccc2)=N/C1=C/NC(CO)C(=O)O (stereo not given)
targetEntity: OVCAR-4
discreteLabel: -1
//
compound: O=C1c2ccccc2C(=O)c2c1ccc1conc21
targetEntity: OVCAR-4
discreteLabel: 1
//
compound: COC(=O)/C(=N\N)C(C(=O)C(=O)Nc1cc(Cl)ccc1Cl)c1nc2ccc([N+](=O)[O-])cc2nc1O (stereo not given)
targetEntity: OVCAR-4
discreteLabel: -1
//
compound: OC1C#CCSCC#C/C=C\1 (stereo not given)
targetEntity: OVCAR-4
discreteLabel: -1
//
compound: CC(=O)N(CN1C(=O)CCC1C(=O)O)c1ccc(C)cc1 (stereo not given)
targetEntity: OVCAR-4
discreteLabel: -1
//
compound: Fc1nc(F)nc(-c2c3ccccc3c3n2CCS3)n1
targetEntity: OVCAR-4
discreteLabel: -1
//
compound: CC(=O)NC(=O)/N=C1\NCCC(=O)N1CCc1c[nH]c2ccccc12
targetEntity: OVCAR-4
discreteLabel: -1
//
compound: CC(=O)O[C@H]1CC[C@@]2(C)C(=CC[C@H]3[C@@H]4C[C@H](N5CCN(C)CC5)[C@H](OC(C)=O)[C@@]4(C)CC[C@@H]32)C1
targetEntity: OVCAR-4
discreteLabel: -1
//
compound: CCOC(=O)c1cccc(/N=N/c2nc[nH]c2/C=C/C(=O)OC)c1
targetEntity: OVCAR-4
discreteLabel: -1
//
compound: Cc1c2oc(=O)c(C#N)cc2c2ccccn12
targetEntity: OVCAR-4
discreteLabel: -1
//
compound: CCOC(=O)c1csc(NC(=O)C(C)N2CCOCC2)n1 (stereo not given)
targetEntity: OVCAR-4
discreteLabel: -1
//
compound: COc1cc(C2c3cc4c(cc3OC(N3CCOCC3)C2C)OCO4)ccc1O (stereo not given)
targetEntity: OVCAR-4
discreteLabel: -1
//
compound: COc1ccc(/C=C/C(=O)/C=C/c2ccc(OC)cc2)cc1
targetEntity: OVCAR-4
discreteLabel: -1
//
compound: O=C(C(=O)N1CCc2ccccc21)c1c[nH]c2ccccc12
targetEntity: OVCAR-4
discreteLabel: -1
//
compound: CC1=CC(=O)CC(C)(C)C1/C=C/C(C)=C/C=C/C(C)=C/C=C/C=C(C)/C=C/C=C(C)/C=C/C1=C(C)CC(O)CC1(C)C (stereo not given)
targetEntity: OVCAR-4
discreteLabel: -1
//
compound: CCOCc1cc(=O)c2c(OC)cc3c(c2o1)CCC(C)(C)O3
targetEntity: OVCAR-4
discreteLabel: -1
//
compound: CC(=O)c1cccc(NC(=O)C(=O)C(c2cnc3ccc([N+](=O)[O-])cc3n2)[N+](=O)[O-])c1 (stereo not given)
targetEntity: OVCAR-4
discreteLabel: -1
//
compound: COc1cc2ccccc2oc1=O
targetEntity: OVCAR-4
discreteLabel: -1
//
compound: Cc1nc(-n2nc(-c3ccccc3)cc2-c2ccccc2)sc1C(=O)CC(=O)C(=O)Nc1ccc(O)cc1
targetEntity: OVCAR-4
discreteLabel: -1
//
compound: O=C1[C@@H]2[C@@H](c3ccccc3)[C@]2(Cl)C(=O)[C@H]2[C@H](c3ccccc3)[C@@]12Cl
targetEntity: OVCAR-4
discreteLabel: -1
//
compound: COC(C/C(=C/CO[Si](C(C)C)(C(C)C)C(C)C)C(=O)N(C(=O)OC(C)(C)C)c1ccccc1I)OC
targetEntity: OVCAR-4
discreteLabel: -1
//
compound: CCOC(=O)C(CC/C=C\c1ccccc1)N1CCC[C@H]1C(=O)OC (stereo not given in full)
targetEntity: OVCAR-4
discreteLabel: -1
//
compound: O=C1c2sccc2C(=O)c2c(CO)csc21
targetEntity: OVCAR-4
discreteLabel: -1
//
compound: N#CCCN(CCC#N)c1ccc(/C=C2\N=C(CN3C(=O)c4ccccc4C3=O)OC2=O)cc1
targetEntity: OVCAR-4
discreteLabel: -1
//
compound: COC(=O)C1=C(C(=O)OC)C(C(=O)OC)C(C(=O)OC)=C1C(=O)OC
targetEntity: OVCAR-4
discreteLabel: -1
